target: WIZ protein (HiBit-WIZ fusion protein) (Homo sapiens, UniProt O95785+Q96SW2); construct: expressed in transfected cells; assay: Quantification of WIZ protein levels in HiBit tag fusion protein assay (WIZ HiBit assay in 293T cells); type: cell-based; settings: HEK-293T, 100 − Amax, at 25 uM; 293T cells; read-out: % degradation of WIZ (100 − Amax)
Sequence (O95785 whole entry, the tested form may be a part): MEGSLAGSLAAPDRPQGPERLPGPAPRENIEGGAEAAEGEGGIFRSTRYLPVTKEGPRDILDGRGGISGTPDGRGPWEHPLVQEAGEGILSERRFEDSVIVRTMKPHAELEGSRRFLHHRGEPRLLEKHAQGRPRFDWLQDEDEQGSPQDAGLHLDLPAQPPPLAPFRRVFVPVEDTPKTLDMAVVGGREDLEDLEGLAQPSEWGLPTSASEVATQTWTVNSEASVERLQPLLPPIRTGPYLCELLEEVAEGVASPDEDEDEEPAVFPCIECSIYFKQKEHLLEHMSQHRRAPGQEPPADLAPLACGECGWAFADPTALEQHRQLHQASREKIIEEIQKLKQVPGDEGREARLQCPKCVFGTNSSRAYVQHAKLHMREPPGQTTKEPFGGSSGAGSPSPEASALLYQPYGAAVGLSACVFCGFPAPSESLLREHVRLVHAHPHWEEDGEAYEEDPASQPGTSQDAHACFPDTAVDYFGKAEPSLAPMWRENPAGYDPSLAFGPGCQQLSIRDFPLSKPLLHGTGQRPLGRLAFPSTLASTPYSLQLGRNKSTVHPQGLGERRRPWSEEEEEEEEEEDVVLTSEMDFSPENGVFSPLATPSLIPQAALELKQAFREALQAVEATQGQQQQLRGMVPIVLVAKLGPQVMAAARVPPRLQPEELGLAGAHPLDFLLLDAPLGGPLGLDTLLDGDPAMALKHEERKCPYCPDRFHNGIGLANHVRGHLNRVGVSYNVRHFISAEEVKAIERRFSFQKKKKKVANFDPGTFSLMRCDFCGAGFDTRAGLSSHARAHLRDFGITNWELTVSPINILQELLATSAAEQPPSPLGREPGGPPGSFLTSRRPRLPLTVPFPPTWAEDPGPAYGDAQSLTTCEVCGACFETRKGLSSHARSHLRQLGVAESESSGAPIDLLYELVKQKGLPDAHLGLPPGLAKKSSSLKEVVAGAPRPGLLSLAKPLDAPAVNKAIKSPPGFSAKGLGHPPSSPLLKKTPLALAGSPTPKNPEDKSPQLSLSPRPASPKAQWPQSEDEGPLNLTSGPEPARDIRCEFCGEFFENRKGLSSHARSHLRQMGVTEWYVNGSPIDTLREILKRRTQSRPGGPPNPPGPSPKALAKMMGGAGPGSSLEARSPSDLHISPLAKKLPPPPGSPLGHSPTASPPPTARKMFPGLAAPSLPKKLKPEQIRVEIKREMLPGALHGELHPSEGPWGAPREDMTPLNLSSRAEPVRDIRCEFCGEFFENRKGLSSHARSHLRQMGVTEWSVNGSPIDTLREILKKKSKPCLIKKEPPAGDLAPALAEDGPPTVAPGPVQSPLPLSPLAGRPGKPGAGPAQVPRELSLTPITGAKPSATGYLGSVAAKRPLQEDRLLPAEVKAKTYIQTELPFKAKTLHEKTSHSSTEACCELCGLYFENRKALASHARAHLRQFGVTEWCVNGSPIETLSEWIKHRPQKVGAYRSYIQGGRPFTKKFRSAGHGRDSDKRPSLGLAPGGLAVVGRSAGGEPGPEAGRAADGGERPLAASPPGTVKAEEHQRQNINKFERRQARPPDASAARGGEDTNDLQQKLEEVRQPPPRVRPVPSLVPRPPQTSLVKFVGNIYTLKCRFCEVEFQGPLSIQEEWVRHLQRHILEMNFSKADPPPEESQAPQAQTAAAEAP
Sequence (Q96SW2 whole entry, the tested form may be a part): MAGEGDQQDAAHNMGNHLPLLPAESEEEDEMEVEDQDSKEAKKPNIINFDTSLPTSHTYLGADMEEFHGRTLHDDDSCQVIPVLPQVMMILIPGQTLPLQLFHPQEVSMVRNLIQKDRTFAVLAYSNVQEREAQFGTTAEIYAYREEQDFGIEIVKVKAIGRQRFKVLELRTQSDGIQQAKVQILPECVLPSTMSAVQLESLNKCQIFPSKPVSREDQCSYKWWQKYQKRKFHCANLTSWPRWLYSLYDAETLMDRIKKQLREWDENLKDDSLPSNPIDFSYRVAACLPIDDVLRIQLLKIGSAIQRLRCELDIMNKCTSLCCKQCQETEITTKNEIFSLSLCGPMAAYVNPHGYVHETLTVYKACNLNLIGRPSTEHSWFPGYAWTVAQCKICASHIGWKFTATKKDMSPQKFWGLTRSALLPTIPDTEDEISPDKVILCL
Sequence (Q16531 whole entry partner, the tested form may be a part): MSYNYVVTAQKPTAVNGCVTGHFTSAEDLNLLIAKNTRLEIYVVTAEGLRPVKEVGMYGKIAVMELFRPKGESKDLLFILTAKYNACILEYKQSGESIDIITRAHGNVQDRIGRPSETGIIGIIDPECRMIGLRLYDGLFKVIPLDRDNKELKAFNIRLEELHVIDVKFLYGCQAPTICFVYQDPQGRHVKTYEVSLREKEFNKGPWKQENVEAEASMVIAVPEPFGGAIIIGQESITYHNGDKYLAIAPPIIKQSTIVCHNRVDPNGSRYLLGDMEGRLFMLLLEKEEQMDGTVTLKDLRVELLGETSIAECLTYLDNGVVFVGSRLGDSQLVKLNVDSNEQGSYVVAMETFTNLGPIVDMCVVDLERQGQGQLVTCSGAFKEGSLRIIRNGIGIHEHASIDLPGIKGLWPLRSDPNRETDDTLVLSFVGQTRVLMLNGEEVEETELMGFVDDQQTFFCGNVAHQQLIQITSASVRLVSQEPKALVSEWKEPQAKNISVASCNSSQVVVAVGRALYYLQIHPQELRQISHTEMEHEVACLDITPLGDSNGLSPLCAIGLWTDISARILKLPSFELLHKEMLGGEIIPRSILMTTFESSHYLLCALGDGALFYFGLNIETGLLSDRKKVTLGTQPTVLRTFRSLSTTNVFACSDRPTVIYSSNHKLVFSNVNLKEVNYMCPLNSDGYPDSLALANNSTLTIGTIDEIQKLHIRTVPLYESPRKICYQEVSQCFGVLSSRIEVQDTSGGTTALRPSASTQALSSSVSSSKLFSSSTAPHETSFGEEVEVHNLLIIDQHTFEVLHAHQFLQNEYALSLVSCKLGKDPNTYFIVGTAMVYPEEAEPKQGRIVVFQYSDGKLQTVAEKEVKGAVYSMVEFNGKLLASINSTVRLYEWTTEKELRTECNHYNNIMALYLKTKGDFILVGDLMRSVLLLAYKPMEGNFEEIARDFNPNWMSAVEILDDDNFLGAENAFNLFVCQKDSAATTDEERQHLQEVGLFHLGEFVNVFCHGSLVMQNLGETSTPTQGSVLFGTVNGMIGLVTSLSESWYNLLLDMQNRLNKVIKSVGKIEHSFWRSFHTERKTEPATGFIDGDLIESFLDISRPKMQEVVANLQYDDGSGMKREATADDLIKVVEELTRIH
observed.property: Dmax at 25 µM (%)

Worked examples follow.
Problem: Recorded Dmax at 25 µM for Cc1ccc(F)cc1CN1CCC(Cc2ccn3ncc(N4CCC(=O)NC4=O)c3c2)CC1 [Example 58] , please?
Solution: 63

Problem: Recorded Dmax at 25 µM for C[C@@H]1CN(CC2CCCCC2)CCN1Cc1ccn2ncc(N3CCC(=O)NC3=O)c2c1 [Example 218] , please?
Solution: 71

Problem: Recorded Dmax at 25 µM for O=C1CCN(c2cnn3ccc(CN4CCCNCC4)cc23)C(=O)N1 [Example 248] , please?
Solution: 0

Problem: Recorded Dmax at 25 µM for C[C@H]1CN(CC2CCCCC2)CCN1Cc1ccn2ncc(N3CCC(=O)NC3=O)c2c1 [Example 221] , please?
Solution: 54

Problem: Recorded Dmax at 25 µM for O=C1CCN(c2cnn3ccc(CC4CCN(S(=O)(=O)C5CC5)CC4)cc23)C(=O)N1 [Example 89] , please?
Solution: 77

[P] O=C1CCN(c2cnn3ccc(CC4CCN(C[C@H]5C[C@@H](F)[C@@H](F)C5)CC4)cc23)C(=O)N1 [Example 301]
[Q] CC(C)(C)OC(=O)N1CCCC(Cc2ccn3ncc(N4CCC(=O)NC4=O)c3c2)CC1 (centres unmarked) [Example 270]
Problem: I need your help: which of the pair P , Q has higher Dmax at 25 µM? Answer by quoting the chosen item's label.
Solution: P

[a] O=C1CCN(c2cnn3ccc(CN4CCN5CCCC[C@H]5C4)cc23)C(=O)N1 [Example 262]
[b] O=C1CCN(c2cnn3ccc(CC4CCN(CC5CCCCC5)C4)cc23)C(=O)N1 (centres unmarked) [Example 128]
Problem: I need your help: which of the pair a , b has higher Dmax at 25 µM? Answer by quoting the chosen item's label.
Solution: a
(a: 68%, b: 29%)

[a] O=C1CCN(c2cnn3ccc(CC4CCN(C5CCC5)CC4)cc23)C(=O)N1 [Example 282]
[b] O=C1CCN(c2cnn3ccc(CN4CCN(CC5CCCCC5)[C@@H](C(F)F)C4)cc23)C(=O)N1 [Example 246]
Problem: I need your help: which of the pair a , b has higher Dmax at 25 µM? Answer by quoting the chosen item's label.
Solution: a

[I] O=C1CCN(c2cnn3ccc(CN4CCN(CC5CC5)CC4)cc23)C(=O)N1 [Example 189]
[II] O=C1CCN(c2cnn3ccc(CC4CCN(C(=O)OC5CCCCC5)CC4)cc23)C(=O)N1 [Example 96]
Problem: I need your help: which of the pair I , II has higher Dmax at 25 µM? Answer by quoting the chosen item's label.
Solution: I

[A] CO[C@H]1C[C@@H](CN2CCC(Cc3ccn4ncc(N5CCC(=O)NC5=O)c4c3)CC2)C1 [Example 300]
[B] CC(C)C(=O)N1CCN(Cc2ccn3ncc(N4CCC(=O)NC4=O)c3c2)C[C@@H]1C [Example 341]
[C] C[C@H]1CN(Cc2ccn3ncc(N4CCC(=O)NC4=O)c3c2)CCN1CC(F)F [Example 327]
Problem: Form: Sort by [Dmax at 25 µM] Order [ ascending ] Arrange the labels as the request states and list them.
Solution: B, C, A

[A] CC(C)CN1[C@H](C)CN(Cc2ccn3ncc(N4CCC(=O)NC4=O)c3c2)C[C@@H]1C [Example 257]
[B] CC(C)COC(=O)N1CCC(Cc2ccn3ncc(N4CCC(=O)NC4=O)c3c2)CC1 [Example 95]
Problem: For A and B , which recorded Dmax at 25 µM is lower? Answer by quoting the chosen item's label.
Solution: B
(B: 43%, A: 74%)

----------
biological target: WIZ protein (HiBit-WIZ fusion protein) (Homo sapiens, UniProt O95785+Q96SW2); construct: expressed in transfected cells; test: Quantification of WIZ protein levels in HiBit tag fusion protein assay (WIZ HiBit assay in 293T cells); assay type: cell-based; conditions: HEK-293T, DMSO-normalized, curve-fitted percentage of WIZ-HiBit remaining at 25 uM; 293T cells; read-out: WIZ Amax
observed.property: remaining activity at 25 µM (%)

Problem: Recorded remaining activity at 25 µM for CC(C)(CN1CCN(Cc2ccn3ncc(N4CCC(=O)NC4=O)c3c2)CC1)C(F)(F)F , please?
Solution: 56

[I] CC(c1cccnc1)N1CCC(Cc2ccn3ncc(N4CCC(=O)NC4=O)c3c2)CC1 (stereo not shown)
[II] Cc1ccccc1CN1CCN(Cc2ccn3ncc(N4CCC(=O)NC4=O)c3c2)CC1
[III] O=C1CCN(c2cnn3ccc(CC4CCN(C[C@H]5CC[C@H](O)CC5)CC4)cc23)C(=O)N1
Problem: Form: Sort by [remaining activity at 25 µM] Order [ ascending ] Arrange the labels as the request states and list them.
Solution: III, I, II

----------
target: WIZ protein (HiBit-WIZ fusion protein) (Homo sapiens, UniProt O95785+Q96SW2); construct: expressed in transfected cells; test: Quantification of WIZ protein levels in HiBit tag fusion protein assay (WIZ HiBit assay in 293T cells); type: cell-based; details: WIZ HiBit assay in 293T cells; 10-point, 5-fold dose response, highest concentration 25 μM, about 18 hours; read-out: WIZ AC50
observed.property: DC50 (nM)

Problem: Recorded DC50 for CC(C)CN1CCN(Cc2ccn3ncc(N4CCC(=O)NC4=O)c3c2)[C@@H](C)C1 , please?
Solution: 457

Problem: Recorded DC50 for CCC(C)CN1CCC(Cc2ccn3ncc(N4CCC(=O)NC4=O)c3c2)CC1 (stereo not drawn) , please?
Solution: 31

Problem: Recorded DC50 for O=C1CCN(c2cnn3ccc(CN4CCN(CC5CCCCC5)C(=O)C4)cc23)C(=O)N1 , please?
Solution: 1600

Problem: Recorded DC50 for O=C1CCN(c2cnn3ccc(CN4CCN(C5CCCCC5)CC4)cc23)C(=O)N1 , please?
Solution: 33

Problem: Recorded DC50 for O=C1CCN(c2cnn3ccc(CC4CCN(CCC5CCOCC5)CC4)cc23)C(=O)N1 , please?
Solution: 55

Problem: Recorded DC50 for C[C@H]1CN(Cc2ccn3ncc(N4CCC(=O)NC4=O)c3c2)CCN1CCC1CCOCC1 , please?
Solution: 193

Problem: Recorded DC50 for O=C1CCN(c2cnn3ccc(CC4CCN(C[C@H]5CC[C@H](O)CC5)CC4)cc23)C(=O)N1 , please?
Solution: 270

Problem: Recorded DC50 for CO[C@H]1CC[C@@H](CN2CCN(Cc3ccn4ncc(N5CCC(=O)NC5=O)c4c3)CC2)CC1 , please?
Solution: 78

Problem: Recorded DC50 for CC(C)CN1[C@@H](C)CN(Cc2ccn3ncc(N4CCC(=O)NC4=O)c3c2)C[C@@H]1C , please?
Solution: 258

Problem: Recorded DC50 for O=C1CCN(c2cnn3ccc(CC4CCN(C(=O)CCc5ccccc5)CC4)cc23)C(=O)N1 , please?
Solution: 165

[1] Cc1ccc(F)cc1CN1CCC(Cc2ccn3ncc(N4CCC(=O)NC4=O)c3c2)CC1
[2] CCC(CC)N1CCC(Cc2ccn3ncc(N4CCC(=O)NC4=O)c3c2)CC1
Problem: I need your help: which of the pair 1 , 2 has higher DC50? Answer by quoting the chosen item's label.
Solution: 1
(1: 33 nM, 2: 22 nM)

[1] CCCN1CCN(Cc2ccn3ncc(N4CCC(=O)NC4=O)c3c2)CC1
[2] C[C@H]1CN(Cc2ccn3ncc(N4CCC(=O)NC4=O)c3c2)CCN1CC1CCCCC1
[3] CC(C)CN1CC[C@H](Cc2ccn3ncc(N4CCC(=O)NC4=O)c3c2)C[C@@H]1C
Problem: Form: Sort by [DC50] Order [ ascending ] Arrange the labels as the request states and list them.
Solution: 3, 2, 1

----------
molecular target: WIZ protein (HiBit-WIZ fusion protein) (Homo sapiens, UniProt O95785+Q96SW2); construct: expressed in transfected cells; assay: Quantification of WIZ protein levels in HiBit tag fusion protein assay (WIZ HiBit assay in 293T cells); format: cell-based; settings: WIZ HiBit assay in 293T cells; 10-point, 5-fold dose response, highest concentration 25 μM, about 18 hours; read-out: WIZ AC50
observed.property: DC50 (nM)

Worked examples follow.
Problem: Recorded DC50 for CC(C)CN1CC[C@H](Cc2ccn3ncc(N4CCC(=O)NC4=O)c3c2)C[C@H]1C [Example 153] , please?
Solution: 14

Problem: Recorded DC50 for CO[C@H]1CC[C@@H](CN2CCC(Cc3ccn4ncc(N5CCC(=O)NC5=O)c4c3)CC2)CC1 [Example 65] , please?
Solution: 32

[I] O=C1CCN(c2cnn3ccc(CC4CCN(S(=O)(=O)c5ccccc5)CC4)cc23)C(=O)N1 [Example 91]
[II] COC(=O)N1CCC(Cc2ccn3ncc(N4CCC(=O)NC4=O)c3c2)CC1 [Example 93]
[III] CC(C)CCN1CCN(Cc2ccn3ncc(N4CCC(=O)NC4=O)c3c2)C[C@@H]1C [Example 204]
Problem: Rank order required: DC50, descending. Arrange the labels as the request states and list them.
Solution: II, I, III

[a] C[C@H]1CN(CC2CCC2)CCN1Cc1ccn2ncc(N3CCC(=O)NC3=O)c2c1 [Example 224]
[b] O=C1CCN(c2cnn3ccc(CN4C[C@H]5C[C@@H]4CN5Cc4cccnc4)cc23)C(=O)N1 [Example 235]
Problem: For a and b , which recorded DC50 is lower? Answer by quoting the chosen item's label.
Solution: a
(a: 854 nM, b: 3280 nM)

[I] CCN1CCC(Cc2ccn3ncc(N4CCC(=O)NC4=O)c3c2)CC1 [Example 24]
[II] C[C@H]1C[C@@H](Cc2ccn3ncc(N4CCC(=O)NC4=O)c3c2)CCN1CC1CCOCC1 [Example 73]
Problem: I need your help: which of the pair I , II has higher DC50? Answer by quoting the chosen item's label.
Solution: I

src = patent US11787785B2
